In this section we review reported Potency values for a set of molecules.
Assay info: qHTS RealTime-Glo MT Cell Viability Assay in HEK293 cells - 40 hour (AID 1224874); also: potency is read from the fitted curve at half-maximal effect; nearly all actives have a fitted effect of over 50% in size
Experimental conditions: RealTime-Glo luminescence
Inconclusive results are not listed. The source made the active and inactive calls. Calls follow the shape of the dose curve; as a rule, active = well fitted cell-killing curve with a large enough effect in the repeat runs; inconclusive = weak or mixed curves, or effect the other way; inactive = flat fitted curve, though single readings scatter.

Recorded results for 4 molecules are shown here.
{"columns": ["Mol", "Result"],
 "data": [
  ["Cc1cc(C2CC2)nc(Nc2ccccc2)n1", "21.9 µM (active)"],
  ["O=[N+]([O-])C(Br)Br", "55 µM (active)"],
  ["CC1=C2C[C@H]3[C@@H](CC=C4C[C@@H](O)CC[C@@]43C)[C@@H]2CC[C@]12O[C@@H]1C[C@H](C)CN[C@H]1[C@H]2C", "16.9 µM (active)"],
  ["C=C(C)C(=O)[O][Sn]([CH2]CCC)([CH2]CCC)[CH2]CCC", "0.245 µM (active)"]
]}

Query molecule follows.
In plain terms, `CCC[CH2][Sn]([CH2]CCC)([CH2]CCC)[O][Sn]([CH2]CCC)([CH2]CCC)[CH2]CCC` has a documented Potency of 0.151 µM (active)
